System: NCI-H460
Experimental Protocol: NCI tumour cell line growth inhibition, 48 h
Active and inactive are the calls of the source. No stated cut-off is given here; in the data, active = GI50 up to about 1.1 µM and inactive = higher.
Please go through the items and note down their GI50.

Check out these entries, answers already filled in.
- CCN1CCC(O)(c2ccc(O)cc2)C(C(=O)c2ccc(O)cc2)C1 (stereo not given): > 100 µM (inactive)
- c1ccc2c(c1)c1c(c3ccccc32)CN2CCCC2C1 (stereo not given): 3.03 µM (inactive)

Please give GI50 for each item listed below.
1. Cc1cc2[nH]c3c(C#N)c(-c4ccccc4)c(/C=N/c4ccc(F)cc4)c(=O)n3c2cc1C
2. Cc1cc(C)nc(NC(=O)c2ccc(Br)s2)c1
3. COc1ccc(/C=N/NS(=O)(=O)c2ccc(/C=C3\NC(=O)NC3=O)cc2)cc1
4. CCC(=O)OCc1ccc2oc(=O)c(C(=O)Oc3cncc(Cl)c3)cc2c1
5. Cc1ccc2[nH]c(=O)c(-c3cnc(O)nn3)c(O)c2c1

1. > 100 µM (inactive)
2. > 100 µM (inactive)
3. > 100 µM (inactive)
4. > 100 µM (inactive)
5. > 100 µM (inactive)

---

System: 786-0
Experimental Protocol: NCI tumour cell line growth inhibition, 48 h
Active and inactive are the calls of the source. Rule as the data show it: active = GI50 up to about 1.1 µM and inactive = higher.
Your answer must be one of the following: active, inactive

See these solved cases before continuing.
- N/C(=N\c1ccc(Cl)cc1)NS(=O)(=O)c1cccc2nsnc12: inactive
- CC(C)=CCC[C@@H](C)C1=C(O)C(=O)C(C)=C(Nc2ccccc2I)C1=O: inactive
- COc1cc(CNC2c3cc4c(cc3C(c3cc(OC)c(OC)c(OC)c3)[C@H]3C(=O)OCC23)OCO4)cc(OC)c1OC (stereo not given in full): active
- O=S(=O)(/C=C/CS(=O)(=O)c1ccccc1)c1ccccc1: inactive
- O=[N+]([O-])C(C(Cl)=C(Cl)Cl)=C(N(Cc1ccccc1)Cc1ccccc1)N(Cc1ccccc1)Cc1ccccc1: inactive

# fetch the recorded call for COC(=O)/C=C1\C(=O)Nc2ccc(Br)cc21 here inactive

# fetch the recorded call for S=C(NCc1ccccc1)N/N=C/c1ccccn1 here inactive

# fetch the recorded call for O=C1CC(S(=O)(=O)O)C=C1Nc1cccc(Cl)c1 (stereo not given) here inactive

# fetch the recorded call for NC(=S)N/N=C1/C(=O)N(c2ccccc2)C(=O)C1C(=O)Nc1ccccc1 (stereo not given) here inactive

# fetch the recorded call for NC1=NNC(=O)c2nnc3c(C(=O)O)cnn3c2S1 here inactive

---

Test system: BT-549
Experimental Protocol: NCI tumour cell line growth inhibition, 48 h
Calls of active or inactive are those of the source. Cut-off read from the data, not from the text of the source: active = GI50 up to about 1.1 µM and inactive = higher.
Please go through the items and note down their GI50.

Check out these entries, answers already filled in.
• O=C(NN1C(=O)C=CC1=O)c1ccccc1Nc1ccccc1C(=O)NN1C(=O)C=CC1=O = > 100 µM (inactive)
• CCOC(=O)N(NC(=O)NC(C)C)c1ccccc1 = > 100 µM (inactive)
• O=c1c2ccccc2nc(-c2cccc([N+](=O)[O-])c2)n1O = 12 µM (inactive)
• Cc1cc(C)nc(NC(=O)c2ccc(Br)s2)c1 = > 100 µM (inactive)
• COc1ccc(/C=N/NS(=O)(=O)c2ccc(/C=C3\NC(=O)NC3=O)cc2)cc1 = > 100 µM (inactive)

Please give GI50 for each item listed below.
1. C#CCCCOc1ncccn1
2. CC1(C)CC23CC(C)(C)c4cccc(c42)OCc2ccc4ccc5ccc(nc5c4n2)COc2cccc1c23
3. COc1ccc2[nH]c3c(c2c1)CC(=O)N1CCCC(CC3O)C1 (stereo not given)
4. CSC(SC)=C1C(=O)N(c2ccccc2)N=C1C
5. CN(C)c1ccc(/C=C2\C[C@H]3[C@@H]4CCC5=CC(=O)CC[C@]5(C)[C@H]4CC[C@]3(C)C2=O)cc1

["> 100 µM (inactive)", "> 50 µM (inactive)", "> 100 µM (inactive)", "21.6 µM (inactive)", "51.2 µM (inactive)"]

---

Test system: OVCAR-3
Experimental Protocol: NCI tumour cell line growth inhibition, 48 h
Active and inactive are the calls of the source. No stated cut-off is given here; in the data, active = GI50 up to about 1.1 µM and inactive = higher.
Test Readout: GI50

- CC(C)[C@@H]1CC[C@@H](C)C[C@H]1OC(=O)/C=C1\C(C(=O)O[C@@H]2C[C@H](C)CC[C@H]2C(C)C)[C@H]2C=C[C@@H]1O2 (some centres undefined): 38.3 µM (inactive)
- CC(=O)OC1CC[C@]2(C)C3CC[C@@]4(C)C(CCC4[C@H](C)CCCC(C)C)[C@@H]3CCC2(Br)C1 (some centres undefined): 14.5 µM (inactive)
- O=[N+]([O-])C(C(Cl)=C(Cl)Cl)=C(N(Cc1ccccc1)Cc1ccccc1)N(Cc1ccccc1)Cc1ccccc1: > 100 µM (inactive)

Now turn to the next compound.
Tell me its GI50 on OVCAR-3: O=[N+]([O-])c1ccc(-c2nc3ccccc3o2)cc1 > 100 µM (inactive)

---

System: OVCAR-3
Experimental Protocol: NCI tumour cell line growth inhibition, 48 h
Calls of active or inactive are those of the source. Rule as the data show it: active = GI50 up to about 1.1 µM and inactive = higher.
Test Readout: GI50

• CCOC(=O)n1cncc1CC(NC(=O)Cc1c(C(=O)C=C(C)C)[nH]c2ccccc12)C(=O)OC (centres undefined) = 17.7 µM (inactive)

Please give GI50 for each item listed below.
1. O=C1c2ccncc2C(=O)c2c(O)ccc(O)c21
2. O=C1O[C@@H](c2ccccc2)C[C@@H]1CN1CCOCC1
3. COc1cc(NS(C)(=O)=O)ccc1NCc1c2ccccc2nc2ccccc12

["1.95 µM (inactive)", "> 100 µM (inactive)", "43.5 µM (inactive)"]

Please give GI50 for each item listed below.
1. CN1CN(c2ccccc2)C2(CCN(CCCC3(c4cccs4)OCCO3)CC2)C1=O
2. O=C(NCCCN1CCN(CCCNC(=O)c2cnc3ccccc3n2)CC1)c1cnc2ccccc2n1
3. CC1(C)CC23CC(C)(C)c4cccc(c42)OCc2ccc4ccc5ccc(nc5c4n2)COc2cccc1c23
4. OCC(S)CS.[Bi] (centres undefined)
5. COc1cc([C@@H]2c3cc4c(cc3[C@@H](OC3OC5CO[C@@H](c6cccs6)OC5C(O)C3O)[C@H]3COC(=O)[C@H]23)OCO4)cc(OC)c1O (some centres undefined)

1: > 100 µM (inactive); 2: > 100 µM (inactive); 3: > 50 µM (inactive); 4: 10.8 µM (inactive); 5: 1.73 µM (inactive)

---

Test system: SF-268
Experimental Protocol: NCI tumour cell line growth inhibition, 48 h
Calls of active or inactive are those of the source. Rule as the data show it: active = GI50 up to about 1.1 µM and inactive = higher.
Test Readout: GI50

* COCCCN1C(=O)C2c3[nH]c4ccccc4c3C3CCC(C(C)(C)C)CC3C2C1=O (stereo unspecified) | 43.7 µM (inactive)
* COc1cccc(C=O)c1[O-].COc1cccc(C=O)c1[O-].[Zn+2] | 55.7 µM (inactive)
* Cc1ccc2c(c1)CN(C(=O)CCC(=O)OCc1ccccc1)c1ccc(C)cc1CN2C(=O)CCC(=O)OCc1ccccc1 | > 100 µM (inactive)
* CCOC(=S)SC/C(=N\OC(C)(C)OC)c1ccccc1 | 56.9 µM (inactive)
* CCN1CCC(O)(c2ccc(O)cc2)C(C(=O)c2ccc(O)cc2)C1 (stereo unspecified) | 39.2 µM (inactive)
* COc1ccc(/C=N/NS(=O)(=O)c2ccc(/C=C3\NC(=O)NC3=O)cc2)cc1 | 28.1 µM (inactive)
* O=C(CP(=O)(O)O)c1cccs1 | > 100 µM (inactive)
* c1ccc2c(c1)nc1n2CCSC1 | > 100 µM (inactive)
* COc1ccc(/C=C2\CN(C)C/C(=C\c3ccc(OC)c(OC)c3OC)C2=O)c(OC)c1OC | 0.164 µM (active)
* CN(N=O)c1nc2c(C(N)=O)ncn2s1 | 55.5 µM (inactive)

Please give GI50 for each item listed below.
1. CC(C)[C@@H]1CC[C@@H](C)C[C@H]1OC(=O)/C=C1\C(C(=O)O[C@@H]2C[C@H](C)CC[C@H]2C(C)C)[C@H]2C=C[C@@H]1O2 (stereo partly specified)
2. O=C(/C=C/c1ccccc1)Oc1ccc(C(=O)/C=C/c2ccccc2)cc1
3. C1CSCCSCCCS[C@@H]2CCCCC2SC1 (stereo partly specified)
4. CSc1nc2ccccc2c(=O)n1/N=C1\C(=O)N(CN2CCCCC2)c2ccc(Cl)cc21
5. Cc1ccc(N/N=C2\C3=C(CCC(C)(C)O3)C(=O)c3ccccc32)cc1

1: 76.4 µM (inactive); 2: 12.3 µM (inactive); 3: > 100 µM (inactive); 4: 20.1 µM (inactive); 5: 30.3 µM (inactive)

Please give GI50 for each item listed below.
1. Nc1ccc(Oc2ccc(C34CC5CC6C3CC3CC4C(C5)C6(c4ccc(Oc5ccc(N)c(O)c5)cc4)C3)cc2)cc1O
2. Cc1sc2nc(-c3ccc(Cl)c([N+](=O)[O-])c3)c(/C=N/NC(=N)N)n2c1C
3. CCCCCCCCCCCCCCCCCCOCC(C[N+]1(C)CCC(O)CC1)OCC (stereo unspecified)
4. COc1cc2cc3c4c(cc(OC)c(OC)c4c2cc1OC)CCN3C(=O)CCC(=O)NCCCN(C)C
5. CC(NNC(=O)c1ccncc1)c1cccc(C(F)(F)F)c1 (stereo unspecified)

1. 3.33 µM (inactive)
2. 1.85 µM (inactive)
3. 3.39 µM (inactive)
4. > 100 µM (inactive)
5. > 100 µM (inactive)

Fill in GI50 for record CCn1c2ccc(O)c(C(=O)OC)c2c2cc3ccccc3c(O)c21 16.3 µM (inactive)
